assay: Stability of the compound in pH 7.4 PIPES buffer assessed as compound hydrolysis at 5 to 10 mg by 31p-NMR analysis; assay type: physicochemical
experimental readout: Stability

Past entries and their recorded results:
O=C(OP(=O)(O)OC(=O)c1ccc(Cl)c(Cl)c1)c1ccc(Cl)c(Cl)c1 :: Stable
N#Cc1ccc(C(=O)OP(=O)(O)OC(=O)c2ccc(C#N)cc2)cc1 :: Unstable
Cc1ccc(C(=O)OP(=O)(O)OC(=O)c2ccc(C)cc2)cc1 :: Stable
O=C(OP(=O)(O)OC(=O)c1ccc(Cl)cc1)c1ccc(Cl)cc1 :: Stable
O=C(OP(=O)(O)OC(=O)c1ccc(F)cc1)c1ccc(F)cc1 :: Stable

-- ask Form field: reported Stability of O=C(OP(=O)(O)OC(=O)c1ccccc1)c1ccccc1
-- reply Stable

-- ask Form field: reported Stability of O=C(OP(=O)(O)OC(=O)c1ccc([N+](=O)[O-])cc1)c1ccc([N+](=O)[O-])cc1
-- reply Unstable

-- ask Form field: reported Stability of O=C(OP(=O)(O)OC(=O)c1ccc(-c2ccccc2)cc1)c1ccc(-c2ccccc2)cc1
-- reply Stable

-- ask Form field: reported Stability of COc1ccc(C(=O)OP(=O)(O)OC(=O)c2ccc(OC)cc2)cc1
-- reply Stable

-- ask Form field: reported Stability of O=C(OP(=O)(O)OC(=O)c1ccc(C(F)(F)F)cc1)c1ccc(C(F)(F)F)cc1
-- reply Stable

###

test system: Mycobacterium tuberculosis; experiment: Inhibition of Mycobacterium tuberculosis BlaC expressed in Escherichia coli at 100 uM using nitrocefin as substrate measured at 2 mins interval for 10 mins relative to control
Label t for high-side inhibition (at or above 40%) and f for low-side inhibition (below it).

These recorded examples may help you get a feel for the data.
O=C(OP(=O)(O)OC(=O)c1ccc(C(F)(F)F)cc1)c1ccc(C(F)(F)F)cc1 :: t
O=C(OP(=O)(O)OC(=O)c1ccc(-c2ccccc2)cc1)c1ccc(-c2ccccc2)cc1 :: f
COc1ccc(C(=O)OP(=O)(O)OC(=O)c2ccc(OC)cc2)cc1 :: t
O=C(OP(=O)(O)OC(=O)c1ccc(Cl)c(Cl)c1)c1ccc(Cl)c(Cl)c1 :: f
Cc1ccc(C(=O)OP(=O)(O)OC(=O)c2ccc(C)cc2)cc1 :: t
O=C(OP(=O)(O)OC(=O)c1ccc(F)cc1)c1ccc(F)cc1 :: t
O=C(OP(=O)(O)OC(=O)c1ccc(Cl)cc1)c1ccc(Cl)cc1 :: f

Please turn your attention to the following entry.
-- ask Hi, just wondering whether O=C(OP(=O)(O)OC(=O)c1ccccc1)c1ccccc1 shows inhibition of 40% or higher.
-- reply t
